Consider the following molecules; for each one, report its CC50.
Test system: GS4.1 cells
Assay: Cytotoxicity evaluation (Cell Titer 96 AQueous One Solution Cell Proliferation Assay)
Assay type: cell-based
Conditions: cellular viability

Bench note: what CC50 did COc1ccc2c(O[C@@H]3C[C@H]4C(=O)N(C)CCCCCC/C=C\[C@@H]5C[C@@]5(C(=O)NS(=O)(=O)C5(C)CC5)NC(=O)N4C3)cc(-c3nc(C(C)C)cs3)nc2c1C [Compound 76b] show?
> 75 µM

# lookup: CC50 of COc1ccc2c(O[C@H]3C[C@H]4C(=O)N(C)CCCC/C=C\[C@@H]5C[C@@]5(C(=O)NS(=O)(=O)C5(C)CC5)NC(=O)N4C3)cc(-c3csc(C#N)n3)nc2c1Cl
> 75 µM

Which value of CC50 has been reported for COc1ccc2c(O[C@H]3C[C@H]4C(=O)N(C)CCCC/C=C\[C@@H]5C[C@@]5(C(=O)NS(=O)(=O)C5CC5)NC(=O)N4C3)cc(-c3csc(C#N)n3)nc2c1Cl in the records?
10 to 75 µM

So what's the measured CC50 for this one? COc1ccc2c(O[C@@H]3C[C@H]4C(=O)N(C)CCCCC/C=C\[C@@H]5C[C@@]5(C(=O)NS(=O)(=O)C5(C)CC5)NC(=O)N4C3)cc(-c3nc(C(C)C)cs3)nc2c1C [Compound 76a]
> 75 µM
